- Assay summary: Quantitative High-Throughput drug screen in 47 multiple myeloma cell lines against the NCATS MIPE library collection: XG6_PLB cell viability assay (AID 1919865); note: nearly all actives have a fitted effect of over 40% in size
- Test context: XG6 myeloma viability, CellTiter-Glo ATP luminescence, 48 h; series mostly up to 45.8 µM
- Text: PI: Beverly A. Mock Ph.D. Laboratory of Cancer Biology and Genetics, Center for Cancer Research, National Cancer Institute, National Institute of Health, Bethesda, Maryland […] 5; Detector; 425V; Luminescence; Viewlux PerkinElmer. […] 1. […] Briefly, the corresponding myeloma cell lines were screened in 1,536-well plates with 500 cells, 5-uL per well for inhibition of cell viability (assessed by measuring ATP levels with CellTiterGlo). […]
Records with an inconclusive call do not appear. Active and inactive are the calls of the source. Calls come from the whole dose curve; as a rule, active = well fitted cell-killing curve with a large enough effect; inconclusive = small, poorly fitted or top-dose-only effect, or effect the other way; inactive = no such curve, though single readings can be large or run the other way.
Hi! Could you answer with just one of these? Yes for active, No for inactive

Here's what some known entries look like.
Compound: C[C@H](NC(=O)[C@@H](O)c1cc(F)cc(F)c1)C(=O)N[C@@H]1C(=O)N(C)c2ccccc2-c2ccccc21
Answer label: Yes
//
Compound: Cc1ccc(O)c(C(CCN(C(C)C)C(C)C)c2ccccc2)c1 (stereo not drawn)
Answer label: No
//
Compound: O=C(O)c1ccc(Nc2ncc3c(n2)-c2ccc(Cl)cc2C(c2c(F)cccc2F)=NC3)cc1
Answer label: Yes
//
Compound: C=C(C)[C@@H]1CC[C@]2(C)CC[C@]3(C)[C@H](CC[C@@H]4[C@@]5(C)CC[C@H](O)C(C)(C)[C@H]5CC[C@]43C)[C@@H]12
Answer label: No

Ask: What outcome does the record of this test show for COc1cc(C(=O)NC2CCN(C)CC2)ccc1Nc1ncc2c(n1)N(C1CCCC1)CCC(=O)N2C(C)C ?
Reply: Yes

Ask: Could you check what this test reported for CC(C)Oc1ccc(C(=O)N[C@H](CNC(=O)CN(C)C)Cc2ccc(-c3cn4cccc([C@H](C)O)c4n3)cc2)cc1Cl ?
Reply: Yes

Ask: Hello, I am checking results. What call was entered for COc1cc(C)c(Sc2cnc(NC(=O)c3ccc(CNC(C)C(C)(C)C)cc3)s2)cc1C(=O)N1CCN(C(C)=O)CC1 (stereo not drawn) ?
Reply: Yes

Ask: # fetch the recorded call for c1ccc(CNc2nc(NCc3ccccc3)c3ccccc3n2)cc1 here
Reply: Yes

Ask: Hello, I am checking results. What call was entered for C#C[C@]1(O)CC[C@@H]2[C@@H]3CCc4cc(O)ccc4[C@H]3CC[C@@]21C ?
Reply: Yes

Ask: Could you kindly confirm the outcome this assay logged for c1coc(CNc2ncnc3nc[nH]c23)c1 ?
Reply: No

Ask: I would be grateful if you could indicate the recorded call for COc1ccc2c(c1OC)C(=O)OC2[C@H]1c2c(cc3c(c2OC)OCO3)CCN1C (stereo partly drawn) .
Reply: Yes

Ask: I'd appreciate the recorded outcome for COc1cc(OC)c(C=CS(=O)(=O)Cc2ccc(OC)c(NCC(=O)O)c2)c(OC)c1 from this test.
Reply: Yes

Ask: // param item: O=C(Nc1cccc(Nc2ncc(Br)c(NCCc3cnc[nH]3)n2)c1)N1CCCC1 ; yields the recorded call
Reply: Yes

Ask: Look up the recorded call for Nc1ncn([C@@H]2O[C@H](CO)[C@@H](O)[C@@H]2O)c(=O)n1 in this test.
Reply: Yes

Ask: Call for entry COc1cc(C)c(C=CC(C)=CC=CC(C)=CC(=O)O)c(C)c1C :
Reply: No

Ask: Please indicate how the test categorized O=C(C[C@@H]1CC=CCCC(=O)O[C@H](c2ccccc2)CNC1=O)NCc1ccc(Cl)cc1 .
Reply: Yes

Ask: For this compound, state the assay outcome: Cn1c(Nc2ccc(C(F)(F)F)cc2)nc2cc(Oc3ccnc(-c4ncc(C(F)(F)F)[nH]4)c3)ccc21
Reply: Yes

Ask: Which outcome did this test record for the compound CN(C)c1ccc2cc(C(=O)N[C@@H](CCCN=C(N)CCl)C(=O)NCc3ccccc3)ccc2c1 ?
Reply: Yes
